- System: SUDIPGXIII (diffuse intrinsic pontine glioma line)
- procedure-details: growth inhibition (% activity, log2 RLU normalised to DMSO / staurosporine); higher = more growth inhibition
- reported-conditions: 33 µM
Exercise: state measured growth inhibition for each of the compounds provided.
State just the number; it will be interpreted in %.

# compound `CC(C)(O/N=C(\C(=O)N[C@@H]1C(=O)N2C(C(=O)[O-])=C(C[n+]3ccccc3)CS[C@H]12)c1csc(N)n1)C(=O)O` ; its growth inhibition = 0.376

# compound `O=C1[C@@H]2[C@H]3CC[C@H](C3)[C@@H]2C(=O)N1C[C@@H]1CCCC[C@H]1CN1CCN(c2nsc3ccccc23)CC1` ; its growth inhibition = 2.16

# compound `COc1ccc2cccc(CCNC(C)=O)c2c1` ; its growth inhibition = -0.361

# compound `CNC(=O)c1ccc(N2C(=S)N(c3ccc(C#N)c(C(F)(F)F)c3)C(=O)C2(C)C)cc1F` ; its growth inhibition = 1.86

# compound `CCCOc1ccc2[nH]c(NC(=O)OC)nc2c1` ; its growth inhibition = 3.23

# compound `CC(C)(S)[C@@H](N)C(=O)O` ; its growth inhibition = -1.43

# compound `NC[C@H]1CC[C@H](C(=O)O)CC1` ; its growth inhibition = -0.00541

# compound CN(C)CCC(c1ccccc1)c1ccccn1 (stereo unspecified) ; its growth inhibition = 0.511

# compound `Cc1ccc(C(=O)c2cc(O)c(O)c([N+](=O)[O-])c2)cc1` ; its growth inhibition = 1.37

# compound `CCC(=O)OCC(=O)[C@@]1(OC(=O)CC)[C@@H](C)C[C@H]2[C@@H]3CCC4=CC(=O)C=C[C@]4(C)[C@@]3(F)[C@@H](O)C[C@@]21C` ; its growth inhibition = 1.98

# compound `O=C(O)C1(C(=O)O)CCC1.[NH2-].[NH2-].[Pt+2]` ; its growth inhibition = -0.0982

# compound `CN(c1nccc(=O)[nH]1)C1CCN(c2nc3ccccc3n2Cc2ccc(F)cc2)CC1` ; its growth inhibition = -15

# compound `O=c1cc[nH]c(=S)[nH]1` ; its growth inhibition = 0.601

# compound CC1CC(OC(=O)C(O)c2ccccc2)CC(C)(C)C1 (stereo unspecified) ; its growth inhibition = 1.8

# compound `COc1ccc(/C=C/C(=O)Nc2ccccc2C(=O)O)cc1OC` ; its growth inhibition = -1.02

# compound `CC(=O)O[C@]1(C(C)=O)CC[C@H]2[C@@H]3C[C@H](C)C4=CC(=O)C=C[C@]4(C)[C@@]3(F)[C@@H](O)C[C@@]21C` ; its growth inhibition = 1.16

# compound `NC(=O)N/N=C/c1ccc([N+](=O)[O-])o1` ; its growth inhibition = -0.395

# compound `NC(=O)CC[C@H](N)C(=O)O` ; its growth inhibition = -0.384

# compound `O=C(NCCN1CCOCC1)c1ccc(Cl)cc1` ; its growth inhibition = 0.934

# compound `CN(C)CCOc1ccc(/C(=C(/CCCl)c2ccccc2)c2ccccc2)cc1` ; its growth inhibition = -0.556

# compound COC(=O)C1=C(C)NC(C)=C(C(=O)OCC(C)C)C1c1ccccc1[N+](=O)[O-] (stereo unspecified) ; its growth inhibition = 2.06

---

Exercise: state measured growth inhibition for each of the compounds provided.
- Test system: SUDIPGXIII
- procedure-details: growth inhibition (% activity, log2 RLU normalised to DMSO / staurosporine); higher = more growth inhibition
- reported-conditions: 33 µM
State just the number; it will be interpreted in %.

# compound CCc1cccc2c3c([nH]c12)C(CC)(CC(=O)O)OCC3 (stereo not drawn) ; its growth inhibition = 1.77

# compound CCC(NC(C)C)C(O)c1ccc(O)c(O)c1 (stereo not drawn) ; its growth inhibition = 1.21

# compound `N=S(=O)(O)Cc1noc2ccccc12` ; its growth inhibition = -0.253

# compound `C[C@]12C=CC(=O)C=C1CC[C@@H]1[C@@H]2C(=O)C[C@@]2(C)[C@H]1CC[C@]2(O)C(=O)CO` ; its growth inhibition = 1.72

# compound `C[C@@H](c1ncncc1F)[C@](O)(Cn1cncn1)c1ccc(F)cc1F` ; its growth inhibition = -0.404

# compound O=C(C1CCCCC1)N1CC(=O)N2CCc3ccccc3C2C1 (stereo not drawn) ; its growth inhibition = -0.635

# compound `CN(C)CCCN1c2ccccc2Sc2ccc(C(F)(F)F)cc21` ; its growth inhibition = -5.35

# compound `CCN(CC)CCNC(=O)c1c(C)[nH]c(/C=C2\C(=O)Nc3ccc(F)cc32)c1C` ; its growth inhibition = -4.08

# compound O=C([O-])C(O)[C@H](O)[C@@H](O)[C@H](O)[C@H](O)CO.O=C([O-])C(O)[C@H](O)[C@@H](O)[C@H](O)[C@H](O)CO.[Ca+2] (stereo partly drawn) ; its growth inhibition = -0.395

# compound `COc1cc(/C=C/C(=O)N2CCN(CC(=O)N3CCCC3)CC2)cc(OC)c1OC` ; its growth inhibition = -1.16

# compound `CC1(C)S[C@@H]2[C@H](NC(=O)[C@H](NC(=O)N3CCN(S(C)(=O)=O)C3=O)c3ccccc3)C(=O)N2[C@H]1C(=O)O` ; its growth inhibition = 2.64

# compound CCCCC(CC)CN=C(N)N=C(N)NCCCCCCNC(N)=NC(N)=NCC(CC)CCCC (stereo not drawn) ; its growth inhibition = 69.8

# compound `CN/C(=N\CCSCc1nc[nH]c1C)NC#N` ; its growth inhibition = 0.0177

# compound `Nc1c2c(nc3ccccc13)CCCC2` ; its growth inhibition = -0.353

# compound `Nc1ncn([C@H]2C[C@H](O)[C@@H](CO)O2)c(=O)n1` ; its growth inhibition = 1.68

# compound `C1N2CN3CN1CN(C2)C3` ; its growth inhibition = -0.234

# compound CN1CCCCC1CCN1c2ccccc2Sc2ccc([S+](C)[O-])cc21 (stereo not drawn) ; its growth inhibition = 1.03

# compound `CCN(CC)CCOc1ccc(C(=C(Cl)c2ccccc2)c2ccccc2)cc1` ; its growth inhibition = 0.221

# compound CC(C)(C)NCC(O)c1ccc(O)c(CO)c1 (stereo not drawn) ; its growth inhibition = 1.25

# compound `CCN[C@H]1CN(CCCOC)S(=O)(=O)c2sc(S(N)(=O)=O)cc21` ; its growth inhibition = -0.696

# compound `Cc1[nH]c(=O)c(C#N)cc1-c1ccncc1` ; its growth inhibition = -1.25

# compound `Oc1ccc(/C=C/c2cc(O)cc(O)c2)cc1` ; its growth inhibition = -0.764

# compound `CCN(CC)C(=S)SSC(=S)N(CC)CC` ; its growth inhibition = 0.0312
